The entries below are paired with their reported neutralization IC50.
molecular target: HIV-1 Env of ZM249.1 (HIV-1); assay: cell-based or functional assay
measurement-label: neutralization IC50

binder="CAP256-VRC26.08 (antibody, V domains shown) VH: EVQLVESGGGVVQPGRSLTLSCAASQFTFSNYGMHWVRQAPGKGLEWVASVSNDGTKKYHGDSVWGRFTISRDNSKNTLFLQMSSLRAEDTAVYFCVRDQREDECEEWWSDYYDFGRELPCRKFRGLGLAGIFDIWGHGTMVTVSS VL: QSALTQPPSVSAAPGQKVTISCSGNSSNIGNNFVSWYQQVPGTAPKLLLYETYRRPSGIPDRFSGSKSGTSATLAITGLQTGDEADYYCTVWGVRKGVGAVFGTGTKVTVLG" measurement_label="neutralization IC50" result="0.076 µg/mL"
binder="CAP256-VRC26.03 (antibody, V domains shown) VH: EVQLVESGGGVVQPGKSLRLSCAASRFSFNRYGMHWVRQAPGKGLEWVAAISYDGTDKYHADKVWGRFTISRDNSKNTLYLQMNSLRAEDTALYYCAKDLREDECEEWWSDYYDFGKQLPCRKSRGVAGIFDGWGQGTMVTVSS VL: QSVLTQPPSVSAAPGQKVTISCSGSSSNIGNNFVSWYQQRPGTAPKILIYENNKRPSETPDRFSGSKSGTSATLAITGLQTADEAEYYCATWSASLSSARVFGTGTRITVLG" measurement_label="neutralization IC50" result="0.039 µg/mL"
binder="CAP256-VRC26.02 (antibody, V domains shown) VH: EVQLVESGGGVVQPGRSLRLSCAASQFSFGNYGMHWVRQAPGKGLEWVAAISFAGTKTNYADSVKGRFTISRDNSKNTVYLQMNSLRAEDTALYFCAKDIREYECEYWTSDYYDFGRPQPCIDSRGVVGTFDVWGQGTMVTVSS VL: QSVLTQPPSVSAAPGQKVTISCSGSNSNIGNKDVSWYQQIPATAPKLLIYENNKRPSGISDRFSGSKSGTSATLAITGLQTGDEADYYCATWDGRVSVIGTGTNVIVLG" measurement_label="neutralization IC50" result="> 50 µg/mL"
